experiment: Half life in human serum at 30 uM by LC-MS analysis; type: ADME, cell-free
Positions of bridges follow the written chain, without caps; N, C: chain ends. Residues, ends and D or L forms follow the SMILES beside them.
For each record, write down the corresponding half-life at 30 µM.
Answers are plain numbers, in h.

Known half-life at 30 µM results, listed for orientation:
COMPOUND	MEASUREMENT_UNITS	half-life at 30 µM
C[C@@H]1NC(=O)[C@@H]2CSSC[C@@H]3NC(=O)[C@H](CSSC[C@H](NC(=O)[C@H](C)NC(=O)[C@@H]4CCCN4C(=O)[C@H](Cc4c[nH]cn4)NC3=O)C(=O)NCC(=O)N[C@@H](CCCCN)C(=O)N[C@@H](Cc3c[nH]cn3)C(=O)N[C@@H](Cc3ccccc3)C(=O)N[C@@H](CO)C(=O)N2)NC(=O)[C@H](CCCNC(=N)N)NC(=O)CNC(=O)[C@H](CC(N)=O)NC(=O)CNC1=O (cyclo(ACGKHFSCAGNGRCCHP); disulfide 2-14, 8-15)	h	7.33
C[C@@H]1NC(=O)[C@@H]2CCCN2C(=O)[C@H](Cc2c[nH]cn2)NC(=O)[C@@H]2CSSC[C@@H](C(N)=O)NC(=O)[C@H](CO)NC(=O)[C@H](Cc3ccccc3)NC(=O)[C@H](Cc3c[nH]cn3)NC(=O)[C@H](CCCCN)NC(=O)CNC(=O)[C@H](CSSC[C@H](NC(=O)[C@H](CCCNC(=N)N)NC(=O)CNC(=O)[C@@H](N)CC(N)=O)C(=O)N2)NC1=O (H-NGRCCHPACGKHFSC-NH2; disulfide 4-9, 5-15)	h	1.33

Here is another compound to look at.
Can you share its half-life at 30 µM? I mean this compound: C[C@@H]1NC(=O)[C@H](C)NC(=O)[C@@H]2CSSC[C@@H]3NC(=O)[C@H](CSSC[C@H](NC(=O)[C@H](C)NC(=O)[C@@H]4CCCN4C(=O)[C@H](Cc4c[nH]cn4)NC3=O)C(=O)NCC(=O)N[C@@H](CCCCN)C(=O)N[C@@H](Cc3c[nH]cn3)C(=O)N[C@@H](Cc3ccccc3)C(=O)N[C@@H](CO)C(=O)N2)NC(=O)[C@H](CCCNC(=N)N)NC(=O)CNC(=O)[C@H](CC(N)=O)NC(=O)CNC1=O (cyclo(AAGNGRCCHPACGKHFSC); disulfide 7-12, 8-18)
5.33
